The entries below come with measured Ratio values attached.
experimentDescription: Selectivity ratio of IC50 for human HepG2 cell sto MIC100 for Mycobacterium kansasii 235/80
Type: functional
measurementLabel: Ratio

itemsmiles=Nc1ccc(S(=O)(=O)Nc2nccs2)cc1 measurementlabel=Ratio readoutvalue=1040.3
itemsmiles=O=S(=O)(Nc1nccs1)c1ccc(/N=C/c2cc(Cl)ccc2O)cc1 measurementlabel=Ratio readoutvalue=78.2
itemsmiles=Cc1cc(NS(=O)(=O)c2ccc(N)cc2)no1 measurementlabel=Ratio readoutvalue=163.9
itemsmiles=Cc1cc(C)nc(NS(=O)(=O)c2ccc(NC(=O)c3cc(Cl)ccc3O)cc2)n1 measurementlabel=Ratio readoutvalue=5.4
itemsmiles=Cc1cc(NS(=O)(=O)c2ccc(/N=C/c3cc(Cl)ccc3O)cc2)no1 measurementlabel=Ratio readoutvalue=12.1
